Biological target: DNA topoisomerase 1 (Homo sapiens, UniProt P11387)
Sequence (P11387 whole entry): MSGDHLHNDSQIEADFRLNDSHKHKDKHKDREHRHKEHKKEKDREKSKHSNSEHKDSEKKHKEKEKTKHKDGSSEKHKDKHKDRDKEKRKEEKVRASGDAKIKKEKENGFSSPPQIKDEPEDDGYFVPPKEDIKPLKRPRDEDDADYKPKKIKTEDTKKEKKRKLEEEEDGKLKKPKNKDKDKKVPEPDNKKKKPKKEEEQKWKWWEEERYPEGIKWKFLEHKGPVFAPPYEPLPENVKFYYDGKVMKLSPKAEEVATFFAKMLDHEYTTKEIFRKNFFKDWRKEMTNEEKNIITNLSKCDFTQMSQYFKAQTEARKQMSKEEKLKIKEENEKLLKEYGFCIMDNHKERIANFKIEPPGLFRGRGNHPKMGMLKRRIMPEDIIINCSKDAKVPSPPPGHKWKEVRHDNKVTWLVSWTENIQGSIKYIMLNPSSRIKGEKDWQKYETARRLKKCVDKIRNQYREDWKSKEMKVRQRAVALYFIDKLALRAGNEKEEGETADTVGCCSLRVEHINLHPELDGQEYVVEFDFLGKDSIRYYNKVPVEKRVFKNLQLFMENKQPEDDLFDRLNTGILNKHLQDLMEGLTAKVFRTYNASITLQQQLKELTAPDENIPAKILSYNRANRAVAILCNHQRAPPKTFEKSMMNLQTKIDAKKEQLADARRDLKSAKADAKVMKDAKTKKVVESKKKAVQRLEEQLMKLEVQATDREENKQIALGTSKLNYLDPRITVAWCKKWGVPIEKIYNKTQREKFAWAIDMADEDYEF
Experiment: Inhibition of human DNA topoisomerase 1-mediated relaxation of supercoiled DNA by gel electrophoresis
pIC50: −log10 of the molar value.

COMPOUND | pIC50
CC(C)=CCC[C@](C)(O[C@@H]1O[C@H](CO)[C@@H](O)[C@H](O)[C@H]1O)[C@H]1CC[C@]2(C)[C@@H]1[C@H](O)C[C@@H]1[C@@]3(C)CC[C@H](O[C@@H]4O[C@H](CO)[C@@H](O)[C@H](O)[C@H]4O[C@@H]4O[C@H](CO)[C@@H](O)[C@H](O)[C@H]4O)C(C)(C)[C@@H]3CC[C@]12C [GINSENOSIDE RD] | < 3.60
CC(C)=CCC[C@](C)(O[C@@H]1O[C@H](CO[C@@H]2O[C@H](CO)[C@@H](O)[C@H](O)[C@H]2O)[C@@H](O)[C@H](O)[C@H]1O)[C@H]1CC[C@]2(C)[C@@H]1[C@H](O)C[C@@H]1[C@@]3(C)CC[C@H](O[C@@H]4O[C@H](CO)[C@@H](O)[C@H](O)[C@H]4O[C@@H]4O[C@H](CO)[C@@H](O)[C@H](O)[C@H]4O)C(C)(C)[C@@H]3CC[C@]12C [GINSENOSIDE RB1] | < 3.60
C/C=C(/C)C(=O)O[C@H]1[C@H](OC(C)=O)[C@]2(CO)[C@H](O)[C@H](O)[C@]3(C)C(=CC[C@@H]4[C@@]5(C)CC[C@H](O[C@@H]6O[C@H](C(=O)O)[C@@H](O)[C@H](O[C@@H]7O[C@@H](CO)[C@H](O)[C@H]7O)[C@H]6O[C@@H]6O[C@H](CO)[C@H](O)[C@H](O)[C@H]6O)C(C)(C)[C@@H]5CC[C@]43C)[C@@H]2CC1(C)C [AESCULIOSIDE IIG] | < 3.60

====

# reported GI50 at 48 h; entries follow
Test: Cytotoxicity against human MRC5 cells after 48 hrs by WST8 assay
Assay type: cell-based

COMPOUND | GI50 at 48 h
C/C=C(/C)C(=O)O[C@H]1[C@H](OC(=O)C(C)C)[C@]2(CO)[C@H](O)C[C@]3(C)C(=CC[C@@H]4[C@@]5(C)CC[C@H](O)[C@](C)(CO)[C@@H]5CC[C@]43C)[C@@H]2CC1(C)C | 2.71 µM
C/C=C(/C)C(=O)O[C@H]1[C@H](OC(C)=O)[C@]2(CO)[C@H](O)[C@H](O)[C@]3(C)C(=CC[C@@H]4[C@@]5(C)CC[C@H](O[C@@H]6O[C@H](C(=O)O)[C@@H](O)[C@H](O[C@@H]7OC[C@@H](O)[C@H](O)[C@H]7O)[C@H]6O[C@@H]6O[C@H](CO)[C@@H](O)[C@H](O)[C@H]6O)C(C)(C)[C@@H]5CC[C@]43C)[C@@H]2CC1(C)C [ERYNGIIOSIDE J] | 5.61 µM

====

Tested on: HL-60
Assay: Cytotoxicity against human HL60 cells after 48 hrs by WST8 assay
Type: functional
Conditions: HL-60, 48 h
# reported GI50; entries follow

COMPOUND | GI50 (µM)
C/C=C(/C)C(=O)O[C@H]1[C@H](O)[C@]2(CO)[C@H](O)C[C@]3(C)C(=CC[C@@H]4[C@@]5(C)CC[C@H](O[C@@H]6O[C@H](C(=O)O)[C@@H](O)[C@H](O[C@@H]7O[C@@H](CO)[C@H](O)[C@H]7O)[C@H]6O[C@@H]6O[C@H](CO)[C@H](O)[C@H](O)[C@H]6O)C(C)(C)[C@@H]5CC[C@]43C)[C@@H]2CC1(C)C [AESCULIOSIDE IIC] | 5.75
C/C=C(/C)C(=O)O[C@H]1[C@H](O)[C@]2(CO)[C@H](O)C[C@]3(C)C(=CC[C@@H]4[C@@]5(C)CC[C@H](O[C@@H]6O[C@H](C(=O)O)[C@@H](O)[C@H](O[C@@H]7O[C@@H](CO)[C@H](O)[C@H]7O)[C@H]6O)[C@](C)(CO)[C@@H]5CC[C@]43C)[C@@H]2CC1(C)C [AESCULIOSIDE IID] | 7.5
C/C=C(/C)C(=O)O[C@H]1[C@H](OC(=O)C(C)C)[C@]2(CO)[C@H](O)C[C@]3(C)C(=CC[C@@H]4[C@@]5(C)CC[C@H](O)[C@](C)(CO)[C@@H]5CC[C@]43C)[C@@H]2CC1(C)C | 2.53

====

Target: DNA topoisomerase 2-alpha (Homo sapiens, UniProt P11388)
Sequence (P11388 whole entry): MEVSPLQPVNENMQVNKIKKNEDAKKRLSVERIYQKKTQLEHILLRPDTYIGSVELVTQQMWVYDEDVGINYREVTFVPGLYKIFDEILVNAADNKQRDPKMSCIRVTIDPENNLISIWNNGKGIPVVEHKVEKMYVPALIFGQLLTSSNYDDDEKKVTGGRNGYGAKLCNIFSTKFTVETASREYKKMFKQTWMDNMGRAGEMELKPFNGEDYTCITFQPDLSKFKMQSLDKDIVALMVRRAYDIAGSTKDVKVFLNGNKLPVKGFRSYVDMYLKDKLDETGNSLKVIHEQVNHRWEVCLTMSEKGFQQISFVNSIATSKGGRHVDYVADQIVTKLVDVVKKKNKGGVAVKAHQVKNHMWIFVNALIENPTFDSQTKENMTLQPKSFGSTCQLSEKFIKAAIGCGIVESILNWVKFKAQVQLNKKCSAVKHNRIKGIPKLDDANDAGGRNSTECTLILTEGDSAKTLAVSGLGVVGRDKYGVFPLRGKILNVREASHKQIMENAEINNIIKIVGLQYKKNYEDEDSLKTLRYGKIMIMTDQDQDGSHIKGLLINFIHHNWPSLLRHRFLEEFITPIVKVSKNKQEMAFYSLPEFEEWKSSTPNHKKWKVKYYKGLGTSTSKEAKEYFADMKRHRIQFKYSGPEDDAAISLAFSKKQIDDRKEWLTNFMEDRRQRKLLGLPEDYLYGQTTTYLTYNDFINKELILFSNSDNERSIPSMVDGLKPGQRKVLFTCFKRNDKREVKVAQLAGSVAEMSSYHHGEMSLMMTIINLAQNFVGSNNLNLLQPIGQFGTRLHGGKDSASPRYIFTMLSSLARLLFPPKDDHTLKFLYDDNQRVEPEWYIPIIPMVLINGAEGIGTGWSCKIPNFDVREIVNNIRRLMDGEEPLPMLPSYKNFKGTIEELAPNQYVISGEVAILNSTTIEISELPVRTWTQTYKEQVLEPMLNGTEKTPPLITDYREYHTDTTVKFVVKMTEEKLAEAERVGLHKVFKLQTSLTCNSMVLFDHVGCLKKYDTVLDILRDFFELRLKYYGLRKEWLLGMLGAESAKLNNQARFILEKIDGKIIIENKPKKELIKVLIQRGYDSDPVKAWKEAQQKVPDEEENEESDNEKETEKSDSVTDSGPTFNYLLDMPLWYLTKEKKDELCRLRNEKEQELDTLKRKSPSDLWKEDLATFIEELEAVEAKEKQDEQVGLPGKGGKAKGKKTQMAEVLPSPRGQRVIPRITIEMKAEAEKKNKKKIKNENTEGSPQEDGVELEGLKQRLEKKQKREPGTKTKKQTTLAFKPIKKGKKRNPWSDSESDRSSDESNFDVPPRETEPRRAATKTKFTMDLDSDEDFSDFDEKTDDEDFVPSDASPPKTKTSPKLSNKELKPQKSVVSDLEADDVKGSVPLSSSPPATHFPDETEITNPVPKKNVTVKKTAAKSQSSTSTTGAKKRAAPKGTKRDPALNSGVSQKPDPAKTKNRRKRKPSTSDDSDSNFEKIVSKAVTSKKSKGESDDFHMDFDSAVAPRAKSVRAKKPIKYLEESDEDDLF
Assay: Inhibition of human DNA topoisomerase 2-mediated relaxation of supercoiled DNA by gel electrophoresis

COMPOUND | STUDY_TARGET | IC50
C/C=C(\C)C(=O)O[C@H]1[C@H](OC(=O)/C(C)=C/C)[C@]2(CO)[C@H](O)[C@H](O)[C@]3(C)C(=CC[C@@H]4[C@@]5(C)CC[C@H](O[C@@H]6O[C@H](C(=O)O)[C@@H](O)[C@H](O[C@@H]7O[C@@H](CO)[C@H](O)[C@H]7O)[C@H]6O[C@@H]6O[C@H](CO)[C@@H](O)[C@H](O)[C@H]6O)C(C)(C)[C@@H]5CC[C@]43C)[C@@H]2CC1(C)C [AESCULIOSIDE IIIF] | DNA topoisomerase 2-alpha (Homo sapiens, UniProt P11388) | > 250 µM
C/C=C(/C)C(=O)O[C@H]1[C@H](OC(C)=O)[C@]2(CO)[C@H](O)[C@H](O)[C@]3(C)C(=CC[C@@H]4[C@@]5(C)CC[C@H](O[C@@H]6O[C@H](C(=O)O)[C@@H](O)[C@H](O[C@@H]7OC[C@@H](O)[C@H](O)[C@H]7O)[C@H]6O[C@@H]6O[C@H](CO)[C@@H](O)[C@H](O)[C@H]6O)C(C)(C)[C@@H]5CC[C@]43C)[C@@H]2CC1(C)C [ERYNGIIOSIDE J] | DNA topoisomerase 2-alpha (Homo sapiens, UniProt P11388) | > 250 µM
C/C=C(/C)C(=O)O[C@H]1[C@H](O)[C@]2(CO)[C@H](O)C[C@]3(C)C(=CC[C@@H]4[C@@]5(C)CC[C@H](O[C@@H]6O[C@H](C(=O)O)[C@@H](O)[C@H](O[C@@H]7O[C@@H](CO)[C@H](O)[C@H]7O)[C@H]6O)[C@](C)(CO)[C@@H]5CC[C@]43C)[C@@H]2CC1(C)C [AESCULIOSIDE IID] | DNA topoisomerase 2-alpha (Homo sapiens, UniProt P11388) | > 250 µM

====

Molecular target: DNA topoisomerase 2-alpha (Homo sapiens, UniProt P11388)
pIC50: −log10 of the molar value.
# reported pIC50; entries follow

MOLECULE | pIC50
C/C=C(/C)C(=O)O[C@H]1[C@H](O)C(C)(C)C[C@H]2C3=CC[C@@H]4[C@@]5(C)CC[C@H](O[C@@H]6O[C@H](C(=O)O)[C@@H](O)[C@H](O[C@@H]7OC[C@@H](O)[C@H](O)[C@H]7O)[C@H]6O[C@@H]6O[C@H](CO)[C@@H](O)[C@H](O)[C@H]6O)C(C)(C)[C@@H]5CC[C@@]4(C)[C@]3(C)[C@@H](O)[C@@H](O)[C@]21CO [ERYNGIOSIDE E] | < 3.60
C/C=C(/C)C(=O)O[C@H]1[C@H](OC(=O)C(C)CC)[C@]2(CO)[C@H](O)C[C@]3(C)C(=CC[C@@H]4[C@@]5(C)CC[C@H](O[C@@H]6O[C@H](C(=O)O)[C@@H](O)[C@H](O[C@@H]7O[C@@H](CO)[C@H](O)[C@H]7O)[C@H]6O[C@@H]6O[C@H](CO)[C@H](O)[C@H](O)[C@H]6O)C(C)(C)[C@@H]5CC[C@]43C)[C@@H]2CC1(C)C (some centres not stated) [AESCULIOSIDE IVC] | < 3.60

====

Target: DNA topoisomerase 1 (Homo sapiens) (UniProt P11387)
Experiment: Inhibition of human DNA topoisomerase 1-mediated relaxation of supercoiled DNA at 63 to 125 uM
Calls of active or inactive are those of the source. No cut-off for these calls is given here.

COMPOUND | inhibition
C/C=C(\C)C(=O)O[C@H]1[C@H](OC(=O)/C(C)=C/C)[C@]2(CO)[C@H](O)[C@H](O)[C@]3(C)C(=CC[C@@H]4[C@@]5(C)CC[C@H](O[C@@H]6O[C@H](C(=O)O)[C@@H](O)[C@H](O[C@@H]7O[C@@H](CO)[C@H](O)[C@H]7O)[C@H]6O[C@@H]6O[C@H](CO)[C@@H](O)[C@H](O)[C@H]6O)C(C)(C)[C@@H]5CC[C@]43C)[C@@H]2CC1(C)C [AESCULIOSIDE IIIF] | Active
C/C=C(/C)C(=O)O[C@H]1[C@H](OC(=O)/C(C)=C\C)[C@]2(CO)[C@H](O)C[C@]3(C)C(=CC[C@@H]4[C@@]5(C)CC[C@H](O[C@@H]6O[C@H](C(=O)O)[C@@H](O)[C@H](O[C@@H]7O[C@@H](CO)[C@H](O)[C@H]7O)[C@H]6O[C@@H]6O[C@H](CO)[C@H](O)[C@H](O)[C@H]6O)C(C)(C)[C@@H]5CC[C@]43C)[C@@H]2CC1(C)C | Active

The origin of these recorded values is ChEMBL document CHEMBL1157938.
